# measuredTarget: AKAP18δ-PLB interaction (UniProt P26678+Q6JP77)
# Sequence (Q6JP77 whole entry): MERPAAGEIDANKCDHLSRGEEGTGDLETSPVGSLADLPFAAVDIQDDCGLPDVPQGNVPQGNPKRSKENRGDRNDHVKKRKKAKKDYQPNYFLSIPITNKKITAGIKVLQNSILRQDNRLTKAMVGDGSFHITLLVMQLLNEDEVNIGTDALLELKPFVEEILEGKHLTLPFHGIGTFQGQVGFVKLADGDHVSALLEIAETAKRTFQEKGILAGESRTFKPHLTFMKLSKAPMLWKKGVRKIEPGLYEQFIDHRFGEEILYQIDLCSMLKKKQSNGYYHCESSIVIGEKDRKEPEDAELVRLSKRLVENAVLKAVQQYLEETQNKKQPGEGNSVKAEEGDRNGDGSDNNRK
# Sequence (P26678 whole entry): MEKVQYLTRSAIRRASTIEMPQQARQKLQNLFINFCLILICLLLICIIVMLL
# methodNotes: AlphaScreen binding assay of the GST-AKAP18δ : PLB-biotin interaction
# assayConditions: half-maximal disruption of AKAP18δ-PLB signal; compounds of Examples 2-10; read-out: EC50
Structures can show the parent of a compound that is named as a salt.
propertyName: EC50 (µM)

compound: Cc1ccc(CN2CCc3ccccc3C2)cc1
measuredTarget: AKAP18δ-PLB interaction (UniProt P26678+Q6JP77)
EC50 (µM): 142

compound: O=[N+]([O-])c1ccc(CN2CCc3ccccc3C2)cc1
measuredTarget: AKAP18δ-PLB interaction (UniProt P26678+Q6JP77)
EC50 (µM): 71.5

compound: c1ccc2c(c1)CN(Cc1ccncc1)C2
measuredTarget: AKAP18δ-PLB interaction (UniProt P26678+Q6JP77)
EC50 (µM): 71.8

compound: CC(C)(C)c1ccc(CN2CCc3ccccc3C2)cc1 [Compound 3, hydrochloride salt]
measuredTarget: AKAP18δ-PLB interaction (UniProt P26678+Q6JP77)
EC50 (µM): 55.3

[1] c1ccc(CN2Cc3ccccc3C2)cc1 [Compound 7, N-benzyl-isoindoline hydrochloride salt]
[2] Brc1ccc(CN2CCc3ccccc3C2)cc1 [Compound 5, hydrochloride salt]
Input line: Which has the higher EC50, 1 or 2 ? Kindly give the label for the entry you pick.
Output line: 1

This collection of values is drawn from patent US9585880B2.
